- System: SK-CO-1 (Colorectal Carcinoma)
- assay-remarks: combination Emax (second highest fraction inhibited in the dose matrix, 72 h); higher = more inhibition; extreme values may be limits of the assay
Task for the reader: assign each of the following compounds its reported combination Emax.
Numbers only.

Inquiry: Consider the compound Cc1nc(Nc2ncc(C(=O)Nc3c(C)cccc3Cl)s2)cc(N2CCN(CCO)CC2)n1 [Dasatinib] + CC(=O)Nc1cccc(-n2c(=O)n(C3CC3)c(=O)c3c(Nc4ccc(I)cc4F)n(C)c(=O)c(C)c32)c1 [Trametinib] (first compound max 2 µM, 7x7, partner max 1 µM) tested on SK-CO-1 (Colorectal Carcinoma); state its combination Emax.
Reply text: 0.994

Inquiry: Provide SK-CO-1 (Colorectal Carcinoma) combination Emax reading for Cc1c2c(nn1C)CSCc1cc(n(C)n1)CSc1cc(c3ccccc3c1)OCCCc1c(C(=O)O)n(C)c3c-2c(Cl)ccc13 [AZD5991] + CN(C)CCCOc1ccc(-c2ccc3ncc4c(c3c2)n(C2CCOCC2)c(=O)n4C)cn1 [AZD0156] (first compound max 1 µM, 7x7, partner max 1 µM) .
Reply text: 0.363

Lab note: next compound to report on.
Inquiry: Print SK-CO-1 (Colorectal Carcinoma) combination Emax for CN(CCO)CC[C@H](CSc1ccccc1)Nc1ccc(S(=O)(=O)NC(=O)c2ccc(N3CCC([C@@H](O)c4ccccc4-c4ccc(Cl)cc4)CC3)cc2)cc1S(=O)(=O)C(F)(F)F [AZD4320] + C=CCn1c(=O)c2cnc(Nc3ccc(N4CCN(C)CC4)cc3)nc2n1-c1cccc(C(C)(C)O)n1 [AZD1775] (first compound max 1 µM, partner max 1 µM) .
Reply text: 0.867
